- Target: IKZF3 (Homo sapiens, UniProt Q96SW2+Q9UKT9)
- Construct: endogenous in cells; host or cells: L363 cells
- Sequence (Q9UKT9 whole entry): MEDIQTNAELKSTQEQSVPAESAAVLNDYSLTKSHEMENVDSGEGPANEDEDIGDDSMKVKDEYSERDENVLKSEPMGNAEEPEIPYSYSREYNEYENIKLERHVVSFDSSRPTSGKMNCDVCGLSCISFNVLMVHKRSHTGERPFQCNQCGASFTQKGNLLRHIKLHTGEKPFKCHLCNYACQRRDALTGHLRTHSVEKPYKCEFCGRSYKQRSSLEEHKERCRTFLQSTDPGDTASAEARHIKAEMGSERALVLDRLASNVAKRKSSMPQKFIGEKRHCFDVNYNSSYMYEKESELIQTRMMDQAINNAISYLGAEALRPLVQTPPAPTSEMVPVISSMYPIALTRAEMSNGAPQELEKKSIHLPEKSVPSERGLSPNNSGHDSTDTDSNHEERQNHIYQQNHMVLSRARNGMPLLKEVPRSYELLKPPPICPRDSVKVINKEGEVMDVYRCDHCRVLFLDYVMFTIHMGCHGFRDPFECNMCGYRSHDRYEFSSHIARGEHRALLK
- Sequence (Q96SW2 whole entry): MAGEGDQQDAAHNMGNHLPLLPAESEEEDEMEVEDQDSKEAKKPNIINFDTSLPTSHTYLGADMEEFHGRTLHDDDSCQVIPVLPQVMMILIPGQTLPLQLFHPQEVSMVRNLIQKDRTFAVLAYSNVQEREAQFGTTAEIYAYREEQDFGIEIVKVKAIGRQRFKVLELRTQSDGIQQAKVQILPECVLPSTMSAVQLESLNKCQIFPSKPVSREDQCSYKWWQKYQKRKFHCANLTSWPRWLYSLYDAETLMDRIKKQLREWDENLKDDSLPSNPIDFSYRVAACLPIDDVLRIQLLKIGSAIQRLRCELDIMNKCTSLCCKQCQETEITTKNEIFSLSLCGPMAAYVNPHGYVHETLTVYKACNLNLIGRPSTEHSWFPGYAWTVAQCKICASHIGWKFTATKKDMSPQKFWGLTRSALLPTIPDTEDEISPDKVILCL
- Sequence (Q16531 whole entry partner): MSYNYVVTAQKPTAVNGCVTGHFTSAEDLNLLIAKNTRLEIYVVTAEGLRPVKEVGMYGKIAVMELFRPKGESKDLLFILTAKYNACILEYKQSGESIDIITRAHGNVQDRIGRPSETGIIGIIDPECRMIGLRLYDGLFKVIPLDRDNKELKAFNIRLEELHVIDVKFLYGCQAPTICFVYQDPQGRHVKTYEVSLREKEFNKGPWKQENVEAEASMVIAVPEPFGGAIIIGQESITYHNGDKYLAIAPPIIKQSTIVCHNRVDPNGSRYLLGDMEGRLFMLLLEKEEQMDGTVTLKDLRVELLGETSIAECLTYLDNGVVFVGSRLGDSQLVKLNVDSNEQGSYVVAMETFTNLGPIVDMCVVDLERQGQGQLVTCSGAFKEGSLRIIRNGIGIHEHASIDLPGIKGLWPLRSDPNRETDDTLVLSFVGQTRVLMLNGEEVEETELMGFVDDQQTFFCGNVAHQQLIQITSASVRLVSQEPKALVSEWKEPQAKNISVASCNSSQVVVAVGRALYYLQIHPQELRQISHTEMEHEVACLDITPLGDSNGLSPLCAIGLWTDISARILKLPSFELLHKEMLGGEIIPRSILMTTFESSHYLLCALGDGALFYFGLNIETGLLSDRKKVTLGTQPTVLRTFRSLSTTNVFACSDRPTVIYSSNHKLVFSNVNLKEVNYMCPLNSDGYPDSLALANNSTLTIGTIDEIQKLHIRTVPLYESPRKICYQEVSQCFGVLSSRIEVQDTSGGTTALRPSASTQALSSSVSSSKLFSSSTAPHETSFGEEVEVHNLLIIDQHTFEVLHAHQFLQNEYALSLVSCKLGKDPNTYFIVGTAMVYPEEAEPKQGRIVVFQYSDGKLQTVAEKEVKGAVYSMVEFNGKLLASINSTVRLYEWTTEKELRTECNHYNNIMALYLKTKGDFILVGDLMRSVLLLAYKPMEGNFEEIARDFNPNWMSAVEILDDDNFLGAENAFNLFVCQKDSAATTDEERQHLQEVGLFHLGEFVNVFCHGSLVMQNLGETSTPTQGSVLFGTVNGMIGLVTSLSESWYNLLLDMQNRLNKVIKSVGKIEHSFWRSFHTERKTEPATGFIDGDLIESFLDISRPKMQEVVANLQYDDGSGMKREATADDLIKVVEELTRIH
- Method: Degradation of IKZF3 in L363 cells by Western blot
- Type: cell-based
- Test context: compound 1000 nM, 16 hours
Give measured IKZF3 degradation rate (%) for each item. Keep answers brief.
One number for each entry, in %.

Nc1cccc2c1C(=O)N(C1CCC(=O)NC1=O)C2=O (stereo not drawn) [Pomalidomide, reference compound] : 98.6
CC(C)(O)c1cc2nn(C3CCN(CCCC4CCN(c5ccc6c(c5)C(=O)N(C5CCC(=O)NC5=O)C6=O)CC4)CC3)cc2cc1NC(=O)c1cccc(C(F)(F)F)n1 (stereo not drawn) [Example 6] : 8.4

Dear colleague, could you send me IKZF3 degradation rate (%) for each of the items below? Thanks.
1. CN(CC1CCN(c2cccc3c2C(=O)N(C2CCC(=O)NC2=O)C3=O)CC1)C[C@H]1CC[C@H](n2cc3cc(NC(=O)c4cccc(C(F)(F)F)n4)c(C(C)(C)O)cc3n2)CC1 (stereo partly drawn) [Control group 3, reference compound]
2. CC(C)(O)c1cc2nn(C3CCN(CCN4CCN(c5ccc6c(c5)C(=O)N(C5CCC(=O)NC5=O)C6=O)CC4)CC3)cc2cc1NC(=O)c1cccc(C(F)(F)F)n1 (stereo not drawn) [Example 4]
3. CC(C)(O)c1cc2nn(C3CCN(CCC4CCN(c5ccc6c(c5)C(=O)N(C5CCC(=O)NC5=O)C6=O)CC4)CC3)cc2cc1NC(=O)c1cccc(C(F)(F)F)n1 (stereo not drawn) [Example 5]
4. COc1cc2nn(C3CCN(CC4CCN(CCOc5ccc6c(c5)C(=O)N(C5CCC(=O)NC5=O)C6=O)CC4)CC3)cc2cc1NC(=O)c1cccc(C(F)(F)F)n1 (stereo not drawn) [Control group 2, reference compound]

**A:**
92.8
−4.5
22.4
71.2

---

- Target: IRAK4 kinase protein in THP-1 cells (Homo sapiens, UniProt Q9NWZ3)
- Construct: endogenous in cells; host or cells: THP-1 cells
- Sequence (Q9NWZ3 whole entry): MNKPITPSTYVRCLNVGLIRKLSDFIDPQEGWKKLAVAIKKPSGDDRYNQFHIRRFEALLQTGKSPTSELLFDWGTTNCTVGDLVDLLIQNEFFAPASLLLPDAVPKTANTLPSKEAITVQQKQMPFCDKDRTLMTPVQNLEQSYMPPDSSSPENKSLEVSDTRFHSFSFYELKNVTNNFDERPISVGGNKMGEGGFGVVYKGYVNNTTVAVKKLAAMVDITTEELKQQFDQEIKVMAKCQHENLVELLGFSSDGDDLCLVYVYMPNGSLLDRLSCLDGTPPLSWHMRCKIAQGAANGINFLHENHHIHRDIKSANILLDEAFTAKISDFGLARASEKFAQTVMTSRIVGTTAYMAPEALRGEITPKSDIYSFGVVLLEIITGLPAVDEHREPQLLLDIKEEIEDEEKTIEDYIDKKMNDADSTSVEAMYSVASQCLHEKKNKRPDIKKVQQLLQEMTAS
- Method: Degradation of IRAK4 in THP-1 cells by Western Blot
- Type: cell-based
- Test context: degradation percentage of IRAK4 in THP-1 cells, compound 300 nM, 24 hours
Experimental readout: WB D(%) (300 nM)
Answers are plain numbers, in %.

CC(C)(O)c1cc2nn(C3CCN(CCN4CCN(c5ccc6c(c5)C(=O)N(C5CCC(=O)NC5=O)C6=O)CC4)CC3)cc2cc1NC(=O)c1cccc(C(F)(F)F)n1 (centres unmarked) : 99.5
CC(C)(O)c1cc2nn(C3CCN(CC4CCN(c5ccc6c(c5)C(=O)N(C5CCC(=O)NC5=O)C6=O)CC4)CC3)cc2cc1NC(=O)c1cccc(C(F)(F)F)n1 (centres unmarked) : 82.9
COc1cc2nn(C3CCN(CCN4CCN(c5ccc6c(c5)C(=O)N(C5CCC(=O)NC5=O)C6=O)CC4)CC3)cc2cc1NC(=O)c1cccc(C(F)(F)F)n1 (centres unmarked) : 96.7
COc1cc2nn(C3CCN(CCC4CCN(c5ccc6c(c5)C(=O)N(C5CCC(=O)NC5=O)C6=O)CC4)CC3)cc2cc1NC(=O)c1cccc(C(F)(F)F)n1 (centres unmarked) : 99.4

Now take the following molecule into account.
**Q:** # return recorded WB D(%) (300 nM) for entry CC(C)(O)c1cc2nn(C3CCN(CCC4CCN(c5ccc6c(c5)C(=O)N(C5CCC(=O)NC5=O)C6=O)CC4)CC3)cc2cc1NC(=O)c1cccc(C(F)(F)F)n1 (centres unmarked)
**A:** 91.3
